# credit: patent US6972319B1

Target: T1, PACAP-R3 (human, UniProt P41587 24-438)
T1 sequence (looked up): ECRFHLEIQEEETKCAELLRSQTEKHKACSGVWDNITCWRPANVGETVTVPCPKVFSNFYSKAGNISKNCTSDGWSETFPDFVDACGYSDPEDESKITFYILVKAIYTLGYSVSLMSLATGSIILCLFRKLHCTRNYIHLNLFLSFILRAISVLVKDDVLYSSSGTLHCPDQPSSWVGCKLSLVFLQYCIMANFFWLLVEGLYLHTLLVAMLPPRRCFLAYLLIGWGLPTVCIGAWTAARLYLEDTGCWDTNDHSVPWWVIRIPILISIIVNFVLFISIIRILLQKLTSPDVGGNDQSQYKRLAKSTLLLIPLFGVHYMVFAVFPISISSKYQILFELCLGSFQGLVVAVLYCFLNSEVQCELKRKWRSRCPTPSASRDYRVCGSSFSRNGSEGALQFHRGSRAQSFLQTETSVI
Test: cell-based or functional assay
No end group written: not given here.
Class (required): determined from R3 EC50; valid ranges are range 1 = under 0.3 nM, range 2 = from 0.3 nM up to 0.5 nM, range 3 = 0.5 nM and over

Quick check: band for HSDAVFTDNYTRLRKQMASKKYLNSIKNKR [R3P111]
range 3

Quick check: band for HSDAVFTDNYTRLRKQLAAKKYLNDIKK-NH2 [R3P13]
range 3

Quick check: band for HSDAVFTDNYTRLRKQMAVKKYLNDLKKGGT [R3P14]
range 3
